Every entry's value here was drawn from patent US20210253718A1.

molecular target: T1, FZD7 CRD (Homo sapiens, UniProt O75084); assay: Immunofluorescence of anti-FZD5 Fab binding to CHO cells overexpressing Frizzled CRD; design: key: −: no binding; +: very weak binder; ++: weak binder; +++: good binder; ++++: very good binder
T1 construct: D45-S169; GPI anchor signal (C); expressed in transfected cells; host or cells: CHO cells, lentiviral pLenti-puro
METRIC NAME: Immunofluorescence binding, Frizzled CRD overexpressed on CHO cells: FZD7

Consider the reported Immunofluorescence binding, Frizzled CRD overexpressed on CHO cells: FZD7 for these molecules:
MOLECULE	MEASURED
Fab-2916: anti-FZD5 Fab with antibody variable region Fv-2916; CDR SEQ ID NOs: 35, 36, 55, 94, 131, 167 (antibody, V domains shown) VH: EVQLVESGGGLVQPGGSLRLSCAASGFNISYSSIHWVRQAPGKGLEWVASIYPSYSYTYYADSVKGRFTISADTSKNTAYLQMNSLRAEDTAVYYCARYGYYGMDYWGQGTLVTVSS VL: DIQMTQSPSSLSASVGDRVTITCRASQSVSSAVAWYQQKPGKAPKLLIYSASSLYSGVPSRFSGSRSGTDFTLTISSLQPEDFATYYCQQWYHYPYLITFGQGTKVEIK	++++
Fab-2901: anti-FZD5 Fab with antibody variable region Fv-2901; CDR SEQ ID NOs: 35, 36, 40, 79, 116, 154 (antibody, V domains shown) VH: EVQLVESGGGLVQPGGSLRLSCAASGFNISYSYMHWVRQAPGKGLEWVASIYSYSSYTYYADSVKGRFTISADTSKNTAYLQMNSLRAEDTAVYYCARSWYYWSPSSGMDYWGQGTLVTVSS VL: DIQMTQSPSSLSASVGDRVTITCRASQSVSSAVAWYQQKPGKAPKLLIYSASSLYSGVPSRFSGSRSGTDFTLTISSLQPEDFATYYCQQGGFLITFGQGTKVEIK	+
Fab-2922: anti-FZD5 Fab with antibody variable region Fv-2922; CDR SEQ ID NOs: 35, 36, 61, 99, 137, 171 (antibody, V domains shown) VH: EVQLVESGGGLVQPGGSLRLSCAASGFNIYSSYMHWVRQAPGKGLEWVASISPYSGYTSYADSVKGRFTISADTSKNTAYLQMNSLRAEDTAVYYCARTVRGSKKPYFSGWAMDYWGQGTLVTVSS VL: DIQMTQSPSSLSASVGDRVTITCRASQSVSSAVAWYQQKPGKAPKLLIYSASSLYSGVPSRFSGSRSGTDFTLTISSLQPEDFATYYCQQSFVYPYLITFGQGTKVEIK	−
Fab-2932: anti-FZD5 Fab with antibody variable region Fv-2932; CDR SEQ ID NOs: 35, 36, 71, 108, 147, 153 (antibody, V domains shown) VH: EVQLVESGGGLVQPGGSLRLSCAASGFNISYSYMHWVRQAPGKGLEWVASIYSSYSSTSYADSVKGRFTISADTSKNTAYLQMNSLRAEDTAVYYCARGALDYWGQGTLVTVSS VL: DIQMTQSPSSLSASVGDRVTITCRASQSVSSAVAWYQQKPGKAPKLLIYSASSLYSGVPSRFSGSRSGTDFTLTISSLQPEDFATYYCQQWYGSFALITFGQGTKVEIK	++
Fab-2934: anti-FZD5 Fab with antibody variable region Fv-2934; CDR SEQ ID NOs: 35, 36, 73, 110, 149, 155 (antibody, V domains shown) VH: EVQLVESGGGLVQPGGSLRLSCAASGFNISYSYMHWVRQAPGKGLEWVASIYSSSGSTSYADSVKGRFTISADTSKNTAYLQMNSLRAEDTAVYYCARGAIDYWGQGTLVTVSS VL: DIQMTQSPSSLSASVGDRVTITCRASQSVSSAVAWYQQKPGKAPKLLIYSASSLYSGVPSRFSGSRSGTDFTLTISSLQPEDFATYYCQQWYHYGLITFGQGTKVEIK	−

For every item in the list below, what is its measured Immunofluorescence binding, Frizzled CRD overexpressed on CHO cells: FZD7?
1. Fab-2898: anti-FZD5 Fab with antibody variable region Fv-2898; CDR SEQ ID NOs: 35, 36, 37, 76, 113, 152 (antibody, V domains shown) VH: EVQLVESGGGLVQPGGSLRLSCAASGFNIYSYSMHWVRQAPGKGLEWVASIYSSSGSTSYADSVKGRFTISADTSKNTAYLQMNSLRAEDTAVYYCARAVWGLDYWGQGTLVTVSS VL: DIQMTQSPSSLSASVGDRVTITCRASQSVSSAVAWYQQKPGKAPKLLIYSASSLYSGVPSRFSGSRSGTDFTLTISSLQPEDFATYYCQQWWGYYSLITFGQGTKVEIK
2. Fab-2900: anti-FZD5 Fab with antibody variable region Fv-2900; CDR SEQ ID NOs: 35, 36, 39, 78, 115, 153 (antibody, V domains shown) VH: EVQLVESGGGLVQPGGSLRLSCAASGFNLSSYYIHWVRQAPGKGLEWVASISSSSSSTSYADSVKGRFTISADTSKNTAYLQMNSLRAEDTAVYYCARGALDYWGQGTLVTVSS VL: DIQMTQSPSSLSASVGDRVTITCRASQSVSSAVAWYQQKPGKAPKLLIYSASSLYSGVPSRFSGSRSGTDFTLTISSLQPEDFATYYCQQWYSGSSLFTFGQGTKVEIK

OUT:
+++
+

IN: Need Immunofluorescence binding, Frizzled CRD overexpressed on CHO cells: FZD7, item Fab-2921: anti-FZD5 Fab with antibody variable region Fv-2921; CDR SEQ ID NOs: 35, 36, 60, 98, 136, 162 (antibody, V domains shown) VH: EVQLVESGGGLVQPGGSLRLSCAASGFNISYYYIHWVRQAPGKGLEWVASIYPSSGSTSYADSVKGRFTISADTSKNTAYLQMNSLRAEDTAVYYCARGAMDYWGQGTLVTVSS VL: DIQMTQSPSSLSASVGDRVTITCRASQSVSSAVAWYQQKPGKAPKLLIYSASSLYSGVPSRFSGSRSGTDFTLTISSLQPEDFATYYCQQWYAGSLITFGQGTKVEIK
OUT: −
